TARGET_DESC: human σ1 receptor (Homo sapiens)
Construct: expressed in transfected cells; host or cells: HEK-293
Sequence (Q99720 whole entry): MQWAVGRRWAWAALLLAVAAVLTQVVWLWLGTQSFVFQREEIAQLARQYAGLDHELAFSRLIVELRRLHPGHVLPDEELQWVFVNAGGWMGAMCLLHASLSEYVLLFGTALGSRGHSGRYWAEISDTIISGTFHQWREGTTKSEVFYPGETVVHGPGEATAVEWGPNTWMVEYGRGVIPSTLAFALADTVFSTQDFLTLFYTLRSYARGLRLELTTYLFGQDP
ASSAY_SUMMARY: Human σ1 receptor radioligand assay ([3H](+)-pentazocine)
Format: binding
TEST_CONDITIONS: transfected HEK-293 membranes, 5 nM [3H](+)-pentazocine, 37° C., 120 minutes; read-out: Binding σ-[…] (binding to σ1-receptor expressed as Ki)
Each entry below lists one item and its recorded Ki value.
QUANTITY_MEASURED: Ki

O=C(N1CC[C@H](NCCc2ccccc2)C1)N1CCc2ncccc21 :: 0.5 to 1 µM
CC1(C)CN(C(=O)N2CCC3(CCN(Cc4ccc(C(F)(F)F)nc4)CC3)C2)c2cccnc21 :: > 1 µM
Cc1ccc2c(n1)C(C)(C)CN2C(=O)N1CCC2(CCN(Cc3ccccc3)CC2)CC1 :: < 0.1 µM
Cc1ccc2c(n1)C(C)(C)CN2C(=O)[C@H]1CC[C@H](N(C)CC2CCOCC2)CC1 :: 0.1 to 0.5 µM
Cc1ccc2c(n1)C(C)(C)CN2C(=O)N1CCC2(CCN(Cc3ccncc3)CC2)C1 :: > 1 µM
Cc1ccc2c(n1)C(C)(C)CN2C(=O)N1C[C@H]2CN(Cc3ccccc3)C[C@H]2C1 :: 0.1 to 0.5 µM
CC1(C)CN(C(=O)NC2CCN(Cc3ccccc3)CC2)c2ccc(C#N)nc21 :: < 0.1 µM
CC1(C)CN(C(=O)N2CCC3(CCN(Cc4cc(C#N)c(F)cc4F)CC3)CC2)c2cccnc21 :: < 0.1 µM
CC1(C)CN(C(=O)N2CCC3(CCN(Cc4ccc(C#N)cc4)CC3)C2)c2cccnc21 :: < 0.1 µM
Cc1ccc2c(n1)C(C)(C)CN2C(=O)NC[C@@H](c1ccc(F)cc1)N(C)C :: < 0.1 µM
Cc1ccc2c(n1)C(C)(C)CN2C(=O)[C@H]1CC[C@H](N(C)Cc2cccc(F)c2)CC1 :: < 0.1 µM
Cc1ccc2c(n1)C(C)(C)CN2C(=O)N1CCN(Cc2ccccc2)CC1 :: 0.1 to 0.5 µM
Cc1ccc2c(n1)C(C)(C)CN2C(=O)N1CCC2(CCN(CCc3ccccc3)CC2)C1 :: 0.5 to 1 µM
Cc1ccc2c(n1)C(C)(C)CN2C(=O)CC1CCN(Cc2ccccc2)CC1 :: < 0.1 µM
CN[C@H](CNC(=O)N1CC(C)(C)c2nc(C)ccc21)c1ccccc1 :: 0.1 to 0.5 µM
Cc1ccc2c(n1)C(C)(C)CN2C(=O)N1CC[C@@H](N(C)Cc2ccccc2)C1 :: 0.5 to 1 µM
Cc1ccc2c(n1)C(C)(C)CN2C(=O)N1CCC(N(C)Cc2cccnc2)CC1 :: > 1 µM
COc1cccc(CN2CCC3(CC2)CCN(C(=O)N2CC(C)(C)c4nc(C)ccc42)C3)c1 :: > 1 µM
CC1(C)CN(C(=O)NCC2CCN(Cc3ccccc3)CC2)c2cccnc21 :: 0.1 to 0.5 µM
CN(Cc1ccccc1F)[C@H]1CC[C@H](C(=O)N2CC(C)(C)c3ncccc32)CC1 :: < 0.1 µM
Cc1ccc2c(n1)C(C)(C)CN2C(=O)NCC(c1ccccc1)N1CCCC1 (centres unmarked) :: 0.1 to 0.5 µM
Cc1ccc2c(n1)C(C)(C)CN2C(=O)NC1CCN(Cc2ccccc2)CC1 :: < 0.1 µM
CN(Cc1cccc(F)c1)C1CCN(C(=O)N2CC(C)(C)c3ncccc32)CC1 :: 0.5 to 1 µM
CN(Cc1ccccc1)[C@H]1CC[C@H](C(=O)N2CC(C)(C)c3ncc(F)cc32)CC1 :: < 0.1 µM
Cc1ccc2c(n1)C(C)(C)CN2C(=O)N1CCC2(CCN(Cc3cccc(C#N)c3)CC2)C1 :: > 1 µM
CN(C)[C@@H](CNC(=O)N1CC(C)(C)c2ncc(F)cc21)c1ccccc1 :: < 0.1 µM
